Data origin, for the record: PubChem BioAssay (NCI)

tested on: COLO 205 colon; assay: NCI-60 one-dose screen, 48 h (100 = growth as untreated, 0 = no growth, -100 = all killed); conditions: 10 µM unless noted
Compounds without any hit were thinned out: in the full panel of roughly 83,000, 20% have a hit.
Assign growth to each entry below.
Write down the numeric answer in % and omit the unit.

Incoming: In one line, give reported growth of the entry O=C(/C=C/C12c3ccccc3C(c3ccccc31)C1C(=O)NC(=O)C12)c1cccs1 (stereo not given) .
Outgoing: 44

Incoming: In one line, give reported growth of the entry O=c1c(/C=C/c2c(O)ccc3ccccc23)nnc2sc(-c3cccc([N+](=O)[O-])c3)nn12 .
Outgoing: 84.4

Incoming: In one line, give reported growth of the entry C=CC(=O)Nc1ccc2ncnc(Nc3cccc(NS(=O)(=O)CCC)c3Cl)c2c1 .
Outgoing: 12

Incoming: In one line, give reported growth of the entry Cc1cc2c(c(C)n1)CN(C(=O)Nc1nc(-c3cncs3)ccc1N)C2 .
Outgoing: 110

Incoming: In one line, give reported growth of the entry COc1cc(/C=N/NC(=O)c2ccc3nc(-c4ccc(Cl)cc4)[nH]c3c2)cc(OC)c1OC .
Outgoing: 45.7
